target: rat AT1aR (Rattus norvegicus); assay: beta-arrestin2 recruitment assay (PathHunter), rat AT1aR; format: cell-based; settings: 1 h, read-out: Span (relative to hAngII)
Sequence (P25095 whole entry): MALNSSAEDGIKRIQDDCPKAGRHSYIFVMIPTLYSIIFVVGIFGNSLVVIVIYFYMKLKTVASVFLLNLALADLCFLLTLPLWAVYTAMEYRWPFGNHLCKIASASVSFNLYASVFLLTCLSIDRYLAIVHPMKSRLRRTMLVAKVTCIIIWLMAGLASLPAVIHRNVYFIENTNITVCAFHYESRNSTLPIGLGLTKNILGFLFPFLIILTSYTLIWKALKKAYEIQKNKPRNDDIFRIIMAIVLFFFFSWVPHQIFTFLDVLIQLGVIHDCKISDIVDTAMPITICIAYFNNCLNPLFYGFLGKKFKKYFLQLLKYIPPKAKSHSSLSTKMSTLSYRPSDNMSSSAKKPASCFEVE
Where a SMILES comes first, the peptide text is derived from it. [ ]: non-standard residue; d: D form. Ac6c = NC1(C(=O)O)CCCCC1; Sar = CNCC(=O)O
endpoint: Emax

molecule="CC[C@H](C)[C@H](NC(=O)[C@@H]1CCCN1C(=O)[C@H](Cc1c[nH]cn1)NC(=O)C1(NC(=O)[C@H](Cc2ccc(O)cc2)NC(=O)[C@@H](NC(=O)[C@H](CCCNC(=N)N)NC(=O)CNC)C(C)C)CCCCC1)C(=O)O [SEQ ID NO: 11, Sar-Arg-Val-Tyr-cyHex-His-Pro-Ile] (H-[Sar]RVY[Ac6c]HPI-OH)" endpoint=Emax observed="< 105%"
molecule="CNCC(=O)N[C@@H](CCCNC(=N)N)C(=O)N[C@H](C(=O)N[C@@H](Cc1ccc(O)cc1)C(=O)N1CCC[C@H]1C(=O)N[C@@H](Cc1c[nH]cn1)C(=O)N1CCC[C@H]1C(=O)N[C@@H](CCSC)C(=O)O)C(C)C [SEQ ID NO: 9, Sar-Arg-Val-Tyr-Pro-His-Pro-Met] (H-[Sar]RVYPHPM-OH; N-terminus and C-terminus assumed)" endpoint=Emax observed="< 105%"
molecule="CNCC(=O)N[C@@H](CCCNC(=N)N)C(=O)N[C@H](C(=O)N[C@@H](Cc1ccc(O)cc1)C(=O)NC1(C(=O)N[C@@H](Cc2c[nH]cn2)C(=O)N2CCC[C@H]2C(=O)N[C@@H](CCC(N)=O)C(=O)O)CCCCC1)C(C)C [SEQ ID NO: 38, Sar-Arg-Val-Tyr-cyHex-His-Pro-Gln] (H-[Sar]RVY[Ac6c]HPQ-OH)" endpoint=Emax observed="< 105%"
